- assayed-target: Muscarinic acetylcholine receptor
- measurement-protocol: Binding affinity to muscarinic acetylcholine receptor was determined in presence of [3H]OXO-M radioligand (in vitro)
- Format: protein assay
metric: Ki (nM)
State just the number; it will be interpreted in nM.

Here are 4 compounds together with their reported answers.
Q. Item: CN(C)C(=O)N(C)CC#CCN1CCCC1 Test system: Muscarinic acetylcholine receptor Read-out: Ki Value: ?
A. 3.6

Q. Item: O=C1OCCN1CC#CCn1ccnc1 Test system: Muscarinic acetylcholine receptor Read-out: Ki Value: ?
A. 5.7

Q. Item: CCc1nccn1CC#CCN1CCCC1=O Test system: Muscarinic acetylcholine receptor Read-out: Ki Value: ?
A. 29.1

Q. Item: CC(C#CCn1ccnc1)N1CCN(C)C1=O (stereo not given) Test system: Muscarinic acetylcholine receptor Read-out: Ki Value: ?
A. 120

More entries:
Q. Item: CN(C)CC#CCN(C)C(=O)N(C)C Test system: Muscarinic acetylcholine receptor Read-out: Ki Value: ?
A. 16

Q. Item: Cc1cn(CC#CCN2CCCC2=O)cn1 Test system: Muscarinic acetylcholine receptor Read-out: Ki Value: ?
A. 10.3

Q. Item: COC(=O)N(C)CC#CCN1CCCC1 Test system: Muscarinic acetylcholine receptor Read-out: Ki Value: ?
A. 2.6

Q. Item: CCOC(=O)N(C)CC#CCn1ccnc1 Test system: Muscarinic acetylcholine receptor Read-out: Ki Value: ?
A. 206
